test: Drug distribution in C57BL/6 mouse plasma at 30 mg/kg, ip measured after 24 hrs by LC-MS/MS analysis; type: ADME, organism-based
Reported metric: concentration at 24 h (ng/mL)
Report the value in ng/mL with no unit label.

Exercise: Provide only the value of recorded concentration at 24 h for C=C1C(=O)O[C@@H]2C[C@@]3(C)CC[C@@H](OC(=O)c4cnc(Cl)cc4Cl)C(=C)[C@@H]3C[C@H]12
Solution: 1.65

---

molecular target: Cytochrome P450 3A4 (Homo sapiens, UniProt P08684)
Sequence (P08684 whole entry): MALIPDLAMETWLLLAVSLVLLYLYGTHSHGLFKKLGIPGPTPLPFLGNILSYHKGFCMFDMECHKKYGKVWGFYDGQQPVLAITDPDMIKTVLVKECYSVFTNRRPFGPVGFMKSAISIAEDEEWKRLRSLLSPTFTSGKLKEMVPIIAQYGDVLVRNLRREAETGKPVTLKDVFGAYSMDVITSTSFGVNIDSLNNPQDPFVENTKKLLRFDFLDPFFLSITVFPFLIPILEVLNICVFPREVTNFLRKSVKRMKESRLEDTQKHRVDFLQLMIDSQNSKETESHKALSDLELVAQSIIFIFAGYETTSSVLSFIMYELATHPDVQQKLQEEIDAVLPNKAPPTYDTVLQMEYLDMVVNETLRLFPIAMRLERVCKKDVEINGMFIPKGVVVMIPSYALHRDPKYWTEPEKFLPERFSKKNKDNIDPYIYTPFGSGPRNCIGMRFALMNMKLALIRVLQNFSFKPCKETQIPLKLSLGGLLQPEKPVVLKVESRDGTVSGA
pIC50: −log10 of the molar value.
Reported metric: pIC50

Exercise: Provide only the value of recorded pIC50 for C=C1C(=O)O[C@@H]2C[C@@]3(C)CC[C@@H](OC(=O)c4cnc(Cl)cc4Cl)C(=C)[C@@H]3C[C@H]12
Solution: < 4.00

---

Below, each of the molecules is paired with its reported concentration at 2 h value.
assay: Drug distribution in C57BL/6 mouse plasma at 30 mg/kg, ip measured after 2 hrs by LC-MS/MS analysis; format: ADME, organism-based
Report the value in ng/mL with no unit label.

{"Given smiles": "C=C1C(=O)O[C@@H]2C[C@@]3(C)CCCC(=C)[C@@H]3C[C@H]12", "concentration at 2 h (ng/mL)": 7.71}

Exercise: Provide only the value of recorded concentration at 2 h for C=C1C(=O)O[C@@H]2C[C@@]3(C)CC[C@@H](OC(=O)c4cnc(Cl)cc4Cl)C(=C)[C@@H]3C[C@H]12
Solution: 1.97

---

assay: Cmax in male C57BL/6 mouse at 30 mg/kg, ip measured upto 1440 mins by LC-MS/MS analysis; format: ADME, organism-based; settings: in vivo
Below, each of the compounds is paired with its reported Cmax value.
Report the value in ng/mL with no unit label.

{"Given smiles": "C=C1C(=O)O[C@@H]2C[C@@]3(C)CCCC(=C)[C@@H]3C[C@H]12", "Meas value": 159}

Exercise: Provide only the value of recorded Cmax for C=C1C(=O)O[C@@H]2C[C@@]3(C)CC[C@@H](OC(=O)c4cnc(Cl)cc4Cl)C(=C)[C@@H]3C[C@H]12
Solution: 1.57

---

assay: Drug distribution in C57BL/6 mouse plasma at 30 mg/kg, ip measured after 8 hrs by LC-MS/MS analysis; type: ADME, organism-based
Reported metric: concentration at 8 h (ng/mL)
Report the value in ng/mL with no unit label.

Exercise: Provide only the value of recorded concentration at 8 h for C=C1C(=O)O[C@@H]2C[C@@]3(C)CC[C@@H](OC(=O)c4cnc(Cl)cc4Cl)C(=C)[C@@H]3C[C@H]12
Solution: 1.52

---

biological target: Cytochrome P450 2D6 (Homo sapiens)
Sequence (P10635 whole entry): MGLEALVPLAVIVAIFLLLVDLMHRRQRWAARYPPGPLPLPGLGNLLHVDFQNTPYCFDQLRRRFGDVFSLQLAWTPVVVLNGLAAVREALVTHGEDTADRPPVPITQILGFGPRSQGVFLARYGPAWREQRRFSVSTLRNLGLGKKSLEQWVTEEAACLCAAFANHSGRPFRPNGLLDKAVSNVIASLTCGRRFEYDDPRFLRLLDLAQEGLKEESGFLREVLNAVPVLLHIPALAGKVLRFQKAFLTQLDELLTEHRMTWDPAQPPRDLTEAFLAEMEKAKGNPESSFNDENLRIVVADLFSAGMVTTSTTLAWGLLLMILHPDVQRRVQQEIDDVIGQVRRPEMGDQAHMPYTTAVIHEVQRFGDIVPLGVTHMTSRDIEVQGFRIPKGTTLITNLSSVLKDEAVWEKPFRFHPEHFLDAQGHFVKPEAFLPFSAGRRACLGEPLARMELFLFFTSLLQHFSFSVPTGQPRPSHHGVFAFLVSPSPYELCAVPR
pIC50: −log10 of the molar value.
Reported metric: pIC50

Exercise: Give Cytochrome P450 2D6 (Homo sapiens) pIC50 for the following molecule: C=C1C(=O)O[C@@H]2C[C@@]3(C)CC[C@@H](OC(=O)c4cnc(Cl)cc4Cl)C(=C)[C@@H]3C[C@H]12
Solution: < 4.00

---

Below, each of the compounds is paired with its reported concentration at 2 h value.
test: Drug distribution in C57BL/6 mouse colon at 30 mg/kg, ip measured after 2 hrs by LC-MS/MS analysis; assay type: ADME, organism-based; settings: read-out: Drug uptake
Report the value in ng/g with no unit label.

{"Given smiles": "C=C1C(=O)O[C@@H]2C[C@@]3(C)CC[C@@H](OC(=O)c4cnc(Cl)cc4Cl)C(=C)[C@@H]3C[C@H]12", "concentration at 2 h, ng/g": 4610}

Exercise: Provide only the value of recorded concentration at 2 h for C=C1C(=O)O[C@@H]2C[C@@]3(C)CCCC(=C)[C@@H]3C[C@H]12
Solution: 293

---

assay: Drug distribution in C57BL/6 mouse colon at 30 mg/kg, ip measured after 24 hrs by LC-MS/MS analysis; format: ADME, organism-based; conditions: read-out: Drug uptake
Reported metric: concentration at 24 h (ng/g)
Report the value in ng/g with no unit label.

{"Given smiles": "C=C1C(=O)O[C@@H]2C[C@@]3(C)CCCC(=C)[C@@H]3C[C@H]12", "concentration at 24 h (ng/g)": 26.9}

Exercise: Provide only the value of recorded concentration at 24 h for C=C1C(=O)O[C@@H]2C[C@@]3(C)CC[C@@H](OC(=O)c4cnc(Cl)cc4Cl)C(=C)[C@@H]3C[C@H]12
Solution: 81.3

---

Below, each of the compounds is paired with its reported half-life value.
assay: Metabolic stability in human liver microsomes assessed as half life preincubated for 5 mins followed by NADPH addition and measured upto 60 mins by LC-MS/MS analysis; format: ADME, Microsome; details: time < 65 min
Report the value in min with no unit label.

Examples from the recorded data:
{"Compound": "C=C1C(=O)O[C@@H]2C[C@@]3(C)CC[C@@H](OC(=O)/C=C/C(=O)c4ccccc4)C(=C)[C@@H]3C[C@H]12", "half-life / min": 10.4}
{"Compound": "C=C1C(=O)O[C@@H]2C[C@@]3(C)CC[C@@H](OC(=O)/C=C/C(=O)c4ccc(C(F)(F)F)cc4)C(=C)[C@@H]3C[C@H]12", "half-life / min": 20.6}
{"Compound": "C=C1C(=O)O[C@@H]2C[C@@]3(C)CCCC(=C)[C@@H]3C[C@H]12 [ISOALANTOLACTONE]", "half-life / min": 4.47}

Exercise: Provide only the value of recorded half-life for C=C1C(=O)O[C@@H]2C[C@@]3(C)CC[C@@H](OC(=O)c4cc(Cl)cnc4Cl)C(=C)[C@@H]3C[C@H]12
Solution: 95.7

Exercise: Provide only the value of recorded half-life for C=C1C(=O)O[C@@H]2C[C@@]3(C)CC[C@@H](OC(=O)c4cnc(Cl)cc4Cl)C(=C)[C@@H]3C[C@H]12
Solution: 182

Exercise: Provide only the value of recorded half-life for C=C1C(=O)O[C@@H]2C[C@@]3(C)CC[C@@H](OC(=O)c4c(Cl)ccnc4Cl)C(=C)[C@@H]3C[C@H]12
Solution: 118

Exercise: Provide only the value of recorded half-life for C=C1C(=O)O[C@@H]2C[C@@]3(C)CC[C@@H](OC(=O)/C=C/C(=O)c4ccc(F)cc4)C(=C)[C@@H]3C[C@H]12
Solution: 31.1

---

assay: Metabolic stability in mouse liver microsomes assessed as half life preincubated for 5 mins followed by NADPH addition and measured upto 60 mins by LC-MS/MS analysis; format: ADME, Microsome; conditions: time < 65 min
Below, each of the compounds is paired with its reported half-life value.
Please answer in the form of a number followed by its unit of measurement.

{"Given smiles": "C=C1C(=O)O[C@@H]2C[C@@]3(C)CC[C@@H](OC(=O)c4cnc(Cl)cc4Cl)C(=C)[C@@H]3C[C@H]12", "half-life": "65.4 min"}
{"Given smiles": "C=C1C(=O)O[C@@H]2C[C@@]3(C)CC[C@@H](OC(=O)c4c(Cl)ccnc4Cl)C(=C)[C@@H]3C[C@H]12", "half-life": "47.1 min"}
{"Given smiles": "C=C1C(=O)O[C@@H]2C[C@@]3(C)CC[C@@H](OC(=O)/C=C/C(=O)c4ccccc4)C(=C)[C@@H]3C[C@H]12", "half-life": "19.2 min"}

Exercise: Provide only the value of recorded half-life for C=C1C(=O)O[C@@H]2C[C@@]3(C)CC[C@@H](OC(=O)c4cc(Cl)cnc4Cl)C(=C)[C@@H]3C[C@H]12
Solution: 12.6 min

Exercise: Provide only the value of recorded half-life for C=C1C(=O)O[C@@H]2C[C@@]3(C)CCCC(=C)[C@@H]3C[C@H]12
Solution: 9.1 min

Exercise: Provide only the value of recorded half-life for C=C1C(=O)O[C@@H]2C[C@@]3(C)CC[C@@H](OC(=O)/C=C/C(=O)c4ccc(F)cc4)C(=C)[C@@H]3C[C@H]12
Solution: 44.1 min

Exercise: Provide only the value of recorded half-life for C=C1C(=O)O[C@@H]2C[C@@]3(C)CC[C@@H](OC(=O)/C=C/C(=O)c4ccc(C(F)(F)F)cc4)C(=C)[C@@H]3C[C@H]12
Solution: 27.2 min

---

experiment: Drug distribution in C57BL/6 mouse plasma at 30 mg/kg, ip measured after 0.5 hrs by LC-MS/MS analysis; format: ADME, organism-based
Below, each of the compounds is paired with its reported concentration at 0.5 h value.
Report the value in ng/mL with no unit label.

Exercise: Provide only the value of recorded concentration at 0.5 h for C=C1C(=O)O[C@@H]2C[C@@]3(C)CC[C@@H](OC(=O)c4cnc(Cl)cc4Cl)C(=C)[C@@H]3C[C@H]12
Solution: 0.22

Exercise: Provide only the value of recorded concentration at 0.5 h for C=C1C(=O)O[C@@H]2C[C@@]3(C)CCCC(=C)[C@@H]3C[C@H]12
Solution: 27.4

---

Biological target: UniProtKB P20813
Sequence (P20813 whole entry): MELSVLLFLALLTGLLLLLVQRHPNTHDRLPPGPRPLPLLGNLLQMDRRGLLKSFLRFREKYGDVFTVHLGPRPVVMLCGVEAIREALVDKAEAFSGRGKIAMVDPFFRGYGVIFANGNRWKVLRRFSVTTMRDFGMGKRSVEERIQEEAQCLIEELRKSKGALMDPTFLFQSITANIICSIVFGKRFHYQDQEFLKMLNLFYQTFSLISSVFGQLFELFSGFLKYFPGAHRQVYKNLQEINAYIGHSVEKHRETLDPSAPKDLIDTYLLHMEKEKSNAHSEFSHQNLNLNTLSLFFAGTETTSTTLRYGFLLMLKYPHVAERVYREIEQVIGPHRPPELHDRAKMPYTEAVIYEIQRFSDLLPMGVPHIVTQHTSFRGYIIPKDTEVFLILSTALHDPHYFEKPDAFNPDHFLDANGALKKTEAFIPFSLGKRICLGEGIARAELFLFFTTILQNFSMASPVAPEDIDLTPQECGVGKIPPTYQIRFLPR
pIC50: −log10 of the molar value.
Reported metric: pIC50

Exercise: Give UniProtKB P20813 pIC50 for the following compound: C=C1C(=O)O[C@@H]2C[C@@]3(C)CC[C@@H](OC(=O)c4cnc(Cl)cc4Cl)C(=C)[C@@H]3C[C@H]12
Solution: < 4.00
